TEST: Solubility test of crystal IV in different pH medium solutions
Type: physicochemical
TEST_PARAMETERS: thermodynamic from solid; Water, 37° C., 4 hours, supernatant pH 7.83
METRIC_NAME: solubility at 4 h (µg/mL)
Dear colleague, please return just the value in µg/mL, with no unit written.

Record request: solubility at 4 h value, item `C[C@H](NC(=O)c1cc(-c2ccccc2Cl)on1)C(=O)N[C@@H](CC(=O)O)C(=O)COc1c(F)c(F)cc(F)c1F`
339

----------
TEST: Solubility test of crystal IV in different pH medium solutions
Assay type: physicochemical
TEST_PARAMETERS: aqueous buffer, thermodynamic from solid; pH = 4.5 Buffer, 37° C., 24 hours, supernatant pH 4.67
METRIC_NAME: solubility at 24 h (µg/mL)
Report as a plain number; the unit µg/mL is understood.

Which solubility at 24 h value belongs to `C[C@H](NC(=O)c1cc(-c2ccccc2Cl)on1)C(=O)N[C@@H](CC(=O)O)C(=O)COc1c(F)c(F)cc(F)c1F` ?
16
